Every entry's value here was drawn from ChEMBL document CHEMBL4665624.

Consider the following compounds and their measured inhibition of growth at 10 µM readings.
Tested on: HL-60(TB)
Experiment: Antitumor activity against human HL-60(TB) cells assessed as cell growth inhibition at 10 uM incubated for 48 hrs by sulforhodamine B assay
Assay type: functional
Condition Notes: read-out: GI
Assay Metric: inhibition of growth at 10 µM

>>> print(df.to_string())
                                   compound  result
0    Oc1ccccc1-c1nc2c3ccccc3c3ccccc3c2[nH]1   < 10%
1  O=Cc1ccc(-c2nc3c([nH]2)-c2cccc4cccc-3c24)cc1   < 10%
2  CCN(CC)c1ccc(-c2nc3c4ccccc4c4ccccc4c3[nH]2)c(O)c1   < 10%
3       Oc1ccccc1-c1nc2c3ccccc3c3ccccc3c2o1     12%
4  CCN(CC)c1ccc(-c2nc3c4ccccc4c4ccccc4c3o2)c(O)c1   31.4%
5    O=c1[nH]cc(F)c(=O)[nH]1 [FLUOROURACIL]   47.9%
6  O=C1NC(=O)/C(=C/c2ccc(-c3nc4c5ccccc5c5ccccc5c4[nH]3)cc2)S1   57.7%
7  c1cc2ccc3ccc(-c4nc5c6ccccc6c6ccccc6c5[nH]4)c4ccc(c1)c2c34   < 10%
8  O=C1c2ccccc2C(=O)c2c1ccc1[nH]c(-c3ccc(-c4nc5c6ccccc6c6ccccc6c5[nH]4)cc3)nc21   < 10%

----------
Test system: EKVX
Experiment: Antitumor activity against human EKVX cells assessed as cell growth inhibition at 10 uM incubated for 48 hrs by sulforhodamine B assay
Format: functional
Condition Notes: read-out: GI
Assay Metric: inhibition of growth at 10 µM (%)

                                chem_smiles  value_modifier  quantitative_readout
0  O=Cc1ccc(-c2nc3c([nH]2)-c2cccc4cccc-3c24)cc1               =                    23
1  CCN(CC)c1ccc(-c2nc3c4ccccc4c4ccccc4c3[nH]2)c(O)c1               =                  18.2
2  O=C1c2ccccc2C(=O)c2c1ccc1[nH]c(-c3ccc(-c4nc5c6ccccc6c6ccccc6c5[nH]4)cc3)nc21               =                  10.3
3       Oc1ccccc1-c1nc2c3ccccc3c3ccccc3c2o1               =                  21.2
4  CCN(CC)c1ccc(-c2nc3c4ccccc4c4ccccc4c3o2)c(O)c1               =                  20.2
5  c1cc2ccc3ccc(-c4nc5c6ccccc6c6ccccc6c5[nH]4)c4ccc(c1)c2c34               <                    10
6    Oc1ccccc1-c1nc2c3ccccc3c3ccccc3c2[nH]1               =                  19.4
7  O=C1NC(=O)/C(=C/c2ccc(-c3nc4c5ccccc5c5ccccc5c4[nH]3)cc2)S1               =                  11.5

----------
System: CCRF-CEM
Experiment: Antitumor activity against human CCRF-CEM cells assessed as cell growth inhibition at 10 uM incubated for 48 hrs by sulforhodamine B assay
Assay type: functional
Condition Notes: read-out: GI
Outcome label depends on inhibition of growth at 10 µM relative to 40%: at/above gives 1, below gives 0.

                                   compound  label
0       Oc1ccccc1-c1nc2c3ccccc3c3ccccc3c2o1      0
1  CCN(CC)c1ccc(-c2nc3c4ccccc4c4ccccc4c3o2)c(O)c1      1
2  O=C1NC(=O)/C(=C/c2ccc(-c3nc4c5ccccc5c5ccccc5c4[nH]3)cc2)S1      1
3    Oc1ccccc1-c1nc2c3ccccc3c3ccccc3c2[nH]1      0
4  O=C1c2ccccc2C(=O)c2c1ccc1[nH]c(-c3ccc(-c4nc5c6ccccc6c6ccccc6c5[nH]4)cc3)nc21      0
5  O=Cc1ccc(-c2nc3c([nH]2)-c2cccc4cccc-3c24)cc1      0
6  c1cc2ccc3ccc(-c4nc5c6ccccc6c6ccccc6c5[nH]4)c4ccc(c1)c2c34      0
7    O=c1[nH]cc(F)c(=O)[nH]1 [FLUOROURACIL]      1
8  CCN(CC)c1ccc(-c2nc3c4ccccc4c4ccccc4c3[nH]2)c(O)c1      0
